meta.source: the supplement of paper PMC11316812

- Test system: MCF7;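 also: secreted proteins added to cultured cells, EdU pulse at the end, nuclei found by Hoechst imaging, EdU status from nuclear versus surrounding ring intensity ratio, PBS as neutral control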
- assay: percentage of EdU-negative (G0-arrested) nuclei per well, 72 h; higher = more G0 arrest
- condition_summary: protein concentration 0.0225 µM; reference: sequence is the full UniProt precursor, the tested protein was the secreted form or ectodomain

[
  {
    "sequence": "MRPQGPAASPQRLRGLLLLLLLQLPAPSSASEIPKGKQKAQLRQREVVDLYNGMCLQGPAGVPGRDGSPGANGIPGTPGIPGRDGFKGEKGECLRESFEESWTPNYKQCSWSSLNYGIDLGKIAECTFTKMRSNSALRVLFSGSLRLKCRNACCQRWYFTFNGAECSGPLPIEAIIYLDQGSPEMNSTINIHRTSSVEGLCEGIGAGLVDVAIWVGTCSDYPKGDASTGWNSVSRIIIEELPK [Q96CG8]",
    "percentage of EdU-negative (%)": 25.9
  },
  {
    "sequence": "MMSFLLGAILTLLWAPTAQAEVLLQPDFNAEKFSGLWYVVSMASDCRVFLGKKDHLSMSTRAIRPTEEGGLHVHMEFPGADGCNQVDAEYLKVGSEGHFRVPALGYLDVRIVDTDYSSFAVLYIYKELEGALSTMVQLYSRTQDVSPQALKSFQDFYPTLGLPKDMMVMLPQSDACNPESKEAP [Q6UWW0]",
    "percentage of EdU-negative (%)": 26.2
  },
  {
    "sequence": "MWWRVLSLLAWFPLQEASLTNHTETITVEEGQTLTLKCVTSLRKNSSLQWLTPSGFTIFLNEYPALKNSKYQLLHHSANQLSITVPNVTLQDEGVYKCLHYSDSVSTKEVKVIVLATPFKPILEASVIRKQNGEEHVVLMCSTMRSKPPPQITWLLGNSMEVSGGTLHEFETDGKKCNTTSTLIIHTYGKNSTVDCIIRHRGLQGRKLVAPFRFEDLVTDEETASDALERNSLSSQDPQQPTSTVSVTEDSSTSEIDKEEKEQTTQDPDLTTEANPQYLGLARKKSGILLLTLVSFLIFILFIIVQLFIMKLRKAHVIWKKENEVSEHTLESYRSRSNNEETSSEEKNGQSSHPMRCMNYITKLYSEAKTKRKENVQHSKLEEKHIQVPESIV",
    "percentage of EdU-negative (%)": 25.3
  },
  {
    "sequence": "MGPISAPSCRWRIPWQGLLLTASLFTFWNPPTTAQLTIEAVPSNAAEGKEVLLLVHNLPQDPRGYNWYKGETVDANRRIIGYVISNQQITPGPAYSNRETIYPNASLLMRNVTRNDTGSYTLQVIKLNLMSEEVTGQFSVHPETPKPSISSNNSNPVEDKDAVAFTCEPETQNTTYLWWVNGQSLPVSPRLQLSNGNRTLTLLSVTRNDVGPYECEIQNPASANFSDPVTLNVLYGPDAPTISPSDTYYHAGVNLNLSCHAASNPPSQYSWSVNGTFQQYTQKLFIPNITTKNSGSYACHTTNSATGRNRTTVRMITVSDALVQGSSPGLSARATVSIMIGVLARVALI",
    "percentage of EdU-negative (%)": 25.7
  },
  {
    "sequence": "MGRRDAQLLAALLVLGLCALAGSEKPSPCQCSRLSPHNRTNCGFPGITSDQCFDNGCCFDSSVTGVPWCFHPLPKQESDQCVMEVSDRRNCGYPGISPEECASRKCCFSNFIFEVPWCFFPKSVEDCHY",
    "percentage of EdU-negative (%)": 23
  },
  {
    "sequence": "MRAAGTLLAFCCLVLSTTGGPSPDTCSQDLNSRVKPGFPKTIKTNDPGVLQAARYSVEKFNNCTNDMFLFKESRITRALVQIVKGLKYMLEVEIGRTTCKKNQHLRLDDCDFQTNHTLKQTLSCYSEVWVVPWLQHFEVPVLRCH",
    "percentage of EdU-negative (%)": 27.2
  }
]
